Items are presented alongside their recorded neutralization IC50.
target: HIV-1 Env of ZM197.7 (HIV-1)
assay.summary: cell-based or functional assay
The reply should be a number in µg/mL, with the unit left off.

As a guide, the following entries are already answered.
Query: Look up neutralization IC50 for this binder: CAP256-VRC26.08 (antibody, V domains shown) VH: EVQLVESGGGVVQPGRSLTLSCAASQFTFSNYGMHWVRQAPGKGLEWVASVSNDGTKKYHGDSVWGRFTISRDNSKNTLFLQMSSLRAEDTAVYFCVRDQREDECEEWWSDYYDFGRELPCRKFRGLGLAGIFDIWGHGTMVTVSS VL: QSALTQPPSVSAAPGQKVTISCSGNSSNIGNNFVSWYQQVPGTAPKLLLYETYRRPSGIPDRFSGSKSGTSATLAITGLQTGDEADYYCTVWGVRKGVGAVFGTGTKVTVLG
Reply: 0.008

Query: Look up neutralization IC50 for this binder: CAP256-VRC26.10 (antibody, V domains shown) VH: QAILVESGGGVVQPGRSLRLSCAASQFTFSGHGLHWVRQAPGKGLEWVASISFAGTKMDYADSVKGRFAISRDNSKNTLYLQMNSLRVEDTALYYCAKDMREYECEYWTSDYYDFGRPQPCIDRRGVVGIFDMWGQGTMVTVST VL: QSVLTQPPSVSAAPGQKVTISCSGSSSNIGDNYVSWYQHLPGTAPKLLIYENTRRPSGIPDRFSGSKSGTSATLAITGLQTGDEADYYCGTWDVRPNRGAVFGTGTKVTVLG
Reply: 0.346

Below: the item to evaluate.
Query: Look up neutralization IC50 for this binder: CAP256-VRC26.02 (antibody, V domains shown) VH: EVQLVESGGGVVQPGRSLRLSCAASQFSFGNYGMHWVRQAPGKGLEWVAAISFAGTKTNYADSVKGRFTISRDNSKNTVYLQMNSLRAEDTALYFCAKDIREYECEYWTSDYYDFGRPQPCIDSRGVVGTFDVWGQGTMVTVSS VL: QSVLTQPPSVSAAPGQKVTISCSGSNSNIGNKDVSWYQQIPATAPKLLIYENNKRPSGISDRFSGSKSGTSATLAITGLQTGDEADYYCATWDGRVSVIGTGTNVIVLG
Reply: 1.97
